biological target: IL-17A(FLAG-tagged): IL-17RA(His-tagged) (Homo sapiens, UniProt Q16552, K93Q); test: IL-17A(FLAG-tagged): IL-17RA(His-tagged) binding disruption Eu-HTRF assay; conditions: value in brackets, Table 4
Sequence (Q16552 with tags, fused parts or gaps K93Q): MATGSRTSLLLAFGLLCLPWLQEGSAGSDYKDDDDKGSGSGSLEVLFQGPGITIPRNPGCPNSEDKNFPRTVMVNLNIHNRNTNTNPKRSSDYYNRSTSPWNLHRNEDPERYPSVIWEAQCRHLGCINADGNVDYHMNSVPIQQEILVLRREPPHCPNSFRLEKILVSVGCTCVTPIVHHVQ
quantityName: pIC50
Give only the number. pIC50 is defined as minus log10 of concentration in molar units.

As a guide, the following entries are already answered.
CC(C)n1nccc1C(=O)N[C@H](c1cn2ncc(C[C@@H]3C[C@@H](C(F)(F)F)NC3=O)cc2n1)C1CCC(F)(F)CC1 ... 5.61
O=C(N[C@H](c1cn2ncc(C[C@@H]3C[C@@H](C(F)(F)F)NC3=O)cc2n1)C1CCC(F)(F)CC1)c1nonc1C1CC1 ... 5.94
CC(C)n1nccc1C(=O)N[C@H](c1cn2ncc(C[C@H]3C[C@@H](C(F)(F)F)NC3=O)cc2n1)C1CCC(F)(F)CC1 ... 6.82

Turning to the following compound.
Request: For O=C(N[C@H](c1cn2ncc(C[C@H]3C[C@@H](C(F)(F)F)NC3=O)cc2n1)C1CCC(F)(F)CC1)c1nonc1C1CC1 , write its pIC50.
Response: 7.85
